// data source = patent US10654939

Target: T1, rhesus CD40 expressed on HEK293A cells (rhesus monkey, UniProt P25942 21-277 (human entry))
T1 construct: also called HEK293A/rhesusCD40
T1 chain: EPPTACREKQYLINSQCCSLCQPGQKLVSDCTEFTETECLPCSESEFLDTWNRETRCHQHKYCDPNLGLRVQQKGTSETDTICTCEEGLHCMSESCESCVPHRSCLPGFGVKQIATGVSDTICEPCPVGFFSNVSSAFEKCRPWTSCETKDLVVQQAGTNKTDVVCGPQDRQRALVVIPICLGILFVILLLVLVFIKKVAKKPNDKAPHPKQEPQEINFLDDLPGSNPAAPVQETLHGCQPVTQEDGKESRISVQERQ
Experiment: FACS, HEK293A/rhesusCD40 cells
MEASUREMENT NAME: EC50 (µg/mL)

>>> observed_measurement("92F6 (mouse monoclonal antibody) (antibody, V domains shown) VH: QVQLEQSGAEVVKPGASVKVSCTASGFNIKDTYMHWVKQRPEQGLEWIGRIDPANGNTNYDPKFQGKATITADTSSNTGYLQLSSLTSEDTAVYYCSRWGYDWYFDVWGAGTSVTVSS VL: DIVITQSTAIMSASPGEKVTITCSASSSVSYIHWFQQKPGTSPKLWIYTTANLASGVPARFSGSGSGTSYSLTISRMEAEDAATYYCQQRSNYPFTFGSGTKLEIK")
0.13
>>> observed_measurement("29A10 (mouse monoclonal antibody) (antibody, V domains shown) VH: QVKLEQSGGGLVKPGGSLKLSCAASGFTFSHYYMYWVRQTPEKRLEWVATISDAGSYTYYSDSVKGRFTISRDNAKNNLYLQMSSLKSDDTAMYFCARTYYRGDGGYWFFDVWGAGTAVTVSS VL: DIVITQSTSSLAVSVGEKVTMSCESSQSLLYSSNQKNYLAWYQQKPGQSPKLLIYWASTRESGVPDRFTASGSGTDFTLTISSVKAEDLAVYYCQQYYRSPLTFGAGTKLELK")
0.184
